In this section, each of the binders is paired with its reported koff.
assay system: T1, human IFNAR-1 protein (form not stated) (human, UniProt P17181 28-436, limits assumed)
T1 construct: bispecific ELISA
T1 sequence (looked up): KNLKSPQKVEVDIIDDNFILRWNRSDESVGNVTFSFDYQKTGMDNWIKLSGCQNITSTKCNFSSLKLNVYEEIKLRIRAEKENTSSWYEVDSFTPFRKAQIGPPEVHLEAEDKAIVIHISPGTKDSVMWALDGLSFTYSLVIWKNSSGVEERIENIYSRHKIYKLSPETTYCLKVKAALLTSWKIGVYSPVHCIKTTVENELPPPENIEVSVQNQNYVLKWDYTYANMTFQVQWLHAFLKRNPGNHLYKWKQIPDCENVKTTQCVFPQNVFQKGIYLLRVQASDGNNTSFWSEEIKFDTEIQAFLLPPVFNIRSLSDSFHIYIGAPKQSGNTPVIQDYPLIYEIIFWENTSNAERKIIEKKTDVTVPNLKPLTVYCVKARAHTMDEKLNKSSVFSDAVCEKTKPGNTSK
method: affinity measurement of purified IgG at different concentrations (method not named)
measured attribute: koff (s⁻¹)

[
  {
    "binder": "8G11-H4L3 (antibody, V domains shown, Humanized IgG expressed in HEK293; also called VH4 + VL3 (8G11)) VH: QVQLVQSGAEVVKPGASVKLSCKGSGFNIKDYYMHWVKQAPGQGLEWIGRIDPEDAETKYAPKFQGRATITADTSTSTAYLELSSLRSEDTAVYYCARGGNFYVMDYWGQGTLVTVSS VL: DIQLTQSPSFLSTSVGDRVTITCKASQNVGTNVVWYQQKPGKSPKVLIYSASYRVSGVPSRFSGSGSGTEFTLIISSVQPEDFATYFCQQKNNYPYTFGQGTKLEIK",
    "observed measurement": "7.47e-05"
  },
  {
    "binder": "8G11-H2L1 (antibody, V domains shown, Humanized IgG expressed in HEK293; also called VH2 + VL1 (8G11)) VH: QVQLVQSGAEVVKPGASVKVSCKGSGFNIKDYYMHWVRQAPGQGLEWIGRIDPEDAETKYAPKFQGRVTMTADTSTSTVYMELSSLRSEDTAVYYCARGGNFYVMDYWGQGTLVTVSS VL: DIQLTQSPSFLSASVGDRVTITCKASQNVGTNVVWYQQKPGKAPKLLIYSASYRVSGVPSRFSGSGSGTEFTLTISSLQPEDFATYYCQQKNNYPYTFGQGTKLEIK",
    "observed measurement": "9.24e-05"
  },
  {
    "binder": "8G11-H1L1 (antibody, V domains shown, Humanized IgG expressed in HEK293; also called VH1 + VL1 (8G11)) VH: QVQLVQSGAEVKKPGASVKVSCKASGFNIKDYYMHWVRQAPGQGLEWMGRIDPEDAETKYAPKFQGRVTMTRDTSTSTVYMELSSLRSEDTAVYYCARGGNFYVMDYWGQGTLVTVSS VL: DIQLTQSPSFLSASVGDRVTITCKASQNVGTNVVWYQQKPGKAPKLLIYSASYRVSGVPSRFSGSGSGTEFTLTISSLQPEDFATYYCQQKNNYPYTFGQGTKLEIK",
    "observed measurement": 0.000219
  }
]
